The reported numbers originate from patent US10681909B2.

System: corn
assayExplanation: Test A postemergence
Assay type: in vivo, Zea mays
experimentalParameters: 125 g ai/ha, 0 to 100 scale (0 no effect, 100 complete control), approx. 10 d
Text: […]
assayReadout: Plant response rating, Corn

>>> measuredresult("COc1nc(-c2ccc(Cl)cc2)nn1Cc1ccnc(C(F)(F)F)c1")
10
>>> measuredresult("Fc1ccc(-c2nc(OCC(F)(F)F)n(Cc3ccnc(C(F)(F)F)c3)n2)cc1")
40
>>> measuredresult("CCn1nc(-c2ccc(F)cc2)nc1Cc1ccnc(C(F)(F)F)c1")
30
>>> measuredresult("CCCOc1nc(-c2ccccc2)nn1Cc1ccnc(C(F)(F)F)c1")
20
>>> measuredresult("CCCc1nc(-c2ccc(Cl)cc2)nn1Cc1ccnc(C(F)(F)F)c1")
20
>>> measuredresult("Cn1nc(-c2ccc(F)cc2)nc1Cc1ccnc(C(F)(F)F)c1")
30
>>> measuredresult("CCCc1nc(-c2ccc(C(F)(F)F)cc2)nn1Cc1ccnc(C(F)(F)F)c1")
20
>>> measuredresult("CCCc1nc(-c2ccc(F)c(F)c2)nn1Cc1ccnc(C(F)(F)F)c1")
30

Entry CCCOc1nc(-c2ccc(C(F)(F)F)cc2)nn1Cc1ccnc(C(F)(F)F)c1 ; Plant response rating, Corn = 30

Entry FC(F)(F)COc1nc(-c2ccc(C(F)(F)F)cc2)nn1Cc1ccnc(C(F)(F)F)c1 ; Plant response rating, Corn = 20

Entry CCc1nc(-c2ccncc2)nn1Cc1ccnc(C(F)(F)F)c1 ; Plant response rating, Corn = 20

Entry Cc1nc(-c2ccc(Br)cc2)nn1Cc1ccnc(C(F)(F)F)c1 ; Plant response rating, Corn = 30

====

System: pigweed
assayExplanation: Test A preemergence
Format: in vivo, Amaranthus retroflexus
experimentalParameters: 125 g ai/ha, 0 to 100 scale (0 no effect, 100 complete control)
assayReadout: Plant response rating, Pigweed
Please reply with the number alone, leaving off any unit.

>>> measuredresult("CCOc1nc(-c2ccc(Cl)cc2)nn1Cc1ccnc(C(F)(F)F)c1 [Compound 26]")
100
>>> measuredresult("CCCOc1nc(-c2ccccc2)nn1Cc1ccnc(C(F)(F)F)c1 [Compound 33]")
90
>>> measuredresult("COc1nc(-c2ccc(C(F)(F)F)cc2)nn1Cc1ccnc(C(F)(F)F)c1 [Compound 25]")
100
>>> measuredresult("CCCOc1nc(-c2ccc(C(F)(F)F)cc2)nn1Cc1ccnc(C(F)(F)F)c1 [Compound 41]")
90
>>> measuredresult("Cn1nc(-c2ccc(F)cc2)nc1Cc1ccnc(C(F)(F)F)c1 [Compound 13]")
100
>>> measuredresult("CCCc1nc(-c2ccc(Cl)cc2)nn1Cc1ccnc(C(F)(F)F)c1 [Compound 22]")
100
>>> measuredresult("CCn1nc(-c2ccc(F)cc2)nc1Cc1ccnc(C(F)(F)F)c1 [Compound 18]")
100

Now turn to the next compound.
Form field, Plant response rating, Pigweed with pigweed, item CCc1nc(-c2cccc(C(F)(F)F)c2)nn1Cc1ccnc(C(F)(F)F)c1 [Compound 11] : 30

====

Parameter: Plant response rating (scale of 0 to 100 where 0 is no effect and 100 is complete control). Scope: all listed entries.
Test system: morningglory
assayExplanation: Test C postemergence
Format: in vivo, Ipomoea coccinea
experimentalParameters: 125 g ai/ha
Please reply with the number alone, leaving off any unit.

Consider the reported Plant response rating (scale of 0 to 100 where 0 is no effect and 100 is complete control) for these molecules:
>>> measuredresult("FC(F)(F)COc1nc(-c2ccc(Cl)cc2)nn1Cc1ccnc(C(F)(F)F)c1")
75
>>> measuredresult("Fc1ccc(-c2nc(OCC(F)(F)F)n(Cc3ccnc(C(F)(F)F)c3)n2)cc1")
80
>>> measuredresult("FC(F)(F)COc1nc(-c2ccccc2)nn1Cc1ccnc(C(F)(F)F)c1")
90

Entry COc1nc(-c2ccccc2)nn1Cc1ccnc(C(F)(F)F)c1 ; Plant response rating (scale of 0 to 100 where 0 is no effect and 100 is complete control) = 80

Entry CCOc1nc(-c2ccc(C(F)(F)F)cc2)nn1Cc1ccnc(C(F)(F)F)c1 ; Plant response rating (scale of 0 to 100 where 0 is no effect and 100 is complete control) = 85

====

Tested on: wheat
assayExplanation: Test A postemergence
Type: in vivo, Triticum aestivum
experimentalParameters: 31 g ai/ha, 0 to 100 scale (0 no effect, 100 complete control), approx. 10 d
Parameter: Plant response rating, Wheat. Scope: all listed entries.

>>> measuredresult("CCc1nc(-c2ccncc2)nn1Cc1ccnc(C(F)(F)F)c1")
0
>>> measuredresult("Cc1nc(-c2ccc(OC(F)(F)F)cc2)nn1Cc1ccnc(C(F)(F)F)c1")
0
>>> measuredresult("FC(F)(F)COc1nc(-c2ccc(C(F)(F)F)cc2)nn1Cc1ccnc(C(F)(F)F)c1")
30

Now turn to the next compound.
Entry CCOc1nc(-c2ccc(Cl)cc2)nn1Cc1ccnc(C(F)(F)F)c1 ; Plant response rating, Wheat = 20

====

System: ryegrass, Italian
assayExplanation: Test C preemergence
Assay type: in vivo, Lolium multiflorum
experimentalParameters: Preemergence, 31 g ai/ha, visual rating after 13 to 15 d
Parameter: Ryegrass, Italian plant response rating (0 to 100). Scope: all listed entries.
Please reply with the number alone, leaving off any unit.

Consider the reported Ryegrass, Italian plant response rating (0 to 100) for these compounds:
>>> measuredresult("FC(F)(F)COc1nc(-c2ccc(Cl)cc2)nn1Cc1ccnc(C(F)(F)F)c1 [Compound 31]")
50
>>> measuredresult("CCOc1nc(-c2ccccc2)nn1Cc1ccnc(C(F)(F)F)c1 [Compound 27]")
25
>>> measuredresult("CCOc1nc(-c2ccc(F)cc2)nn1Cc1ccnc(C(F)(F)F)c1 [Compound 8]")
50

Now turn to the next compound.
Form field, Ryegrass, Italian plant response rating (0 to 100) with ryegrass, Italian, item COc1nc(-c2ccccc2)nn1Cc1ccnc(C(F)(F)F)c1 [Compound 32] : 0

====

System: barley, winter
assayExplanation: Test D preemergence
Format: in vivo, Hordeum vulgare
experimentalParameters: 125 g ai/ha, scale 0 to 100
assayReadout: Plant response rating: Barley, Winter
Please reply with the number alone, leaving off any unit.

>>> measuredresult("CCOc1nc(-c2ccccc2)nn1Cc1ccnc(C(F)(F)F)c1 [Compound 27]")
35
>>> measuredresult("FC(F)(F)COc1nc(-c2ccc(Cl)cc2)nn1Cc1ccnc(C(F)(F)F)c1 [Compound 31]")
50
>>> measuredresult("CCc1nc(-c2ccc(C(F)(F)F)cc2)nn1Cc1ccnc(C(F)(F)F)c1 [Compound 1]")
10

Now turn to the next compound.
Entry Fc1ccc(-c2nc(OCC(F)(F)F)n(Cc3ccnc(C(F)(F)F)c3)n2)cc1 [Compound 30] ; Plant response rating: Barley, Winter = 40

====

Tested on: barnyardgrass
assayExplanation: Test C postemergence
Assay type: in vivo, Echinochloa crus-galli
experimentalParameters: 125 g ai/ha
Parameter: Plant response rating (scale of 0 to 100 where 0 is no effect and 100 is complete control). Scope: all listed entries.

Consider the reported Plant response rating (scale of 0 to 100 where 0 is no effect and 100 is complete control) for these compounds:
>>> measuredresult("CCCc1nc(-c2ccc(F)cc2)nn1Cc1ccnc(C(F)(F)F)c1 [Compound 6]")
25
>>> measuredresult("CCOc1nc(-c2ccc(Cl)cc2)nn1Cc1ccnc(C(F)(F)F)c1 [Compound 26]")
55
>>> measuredresult("Fc1ccc(-c2nc(OCC(F)(F)F)n(Cc3ccnc(C(F)(F)F)c3)n2)cc1 [Compound 30]")
40
>>> measuredresult("CCOc1nc(-c2ccc(C(F)(F)F)cc2)nn1Cc1ccnc(C(F)(F)F)c1 [Compound 35]")
60

Now turn to the next compound.
Entry CCc1nc(-c2ccc(C(F)(F)F)cc2)nn1Cc1ccnc(C(F)(F)F)c1 [Compound 1] ; Plant response rating (scale of 0 to 100 where 0 is no effect and 100 is complete control) = 15

====

Tested on: oilseed rape
assayExplanation: Test C postemergence
Assay type: in vivo, Brassica napus
experimentalParameters: Oilsee Rape, 250 g ai/ha
assayReadout: Plant response rating (scale of 0 to 100 where 0 is no effect and 100 is complete control)
Please reply with the number alone, leaving off any unit.

Consider the reported Plant response rating (scale of 0 to 100 where 0 is no effect and 100 is complete control) for these compounds:
>>> measuredresult("COc1nc(-c2ccccc2)nn1Cc1ccnc(C(F)(F)F)c1")
45
>>> measuredresult("CCCOc1nc(-c2ccccc2)nn1Cc1ccnc(C(F)(F)F)c1")
60
>>> measuredresult("CCOc1nc(-c2ccccc2)nn1Cc1ccnc(C(F)(F)F)c1")
90

Now turn to the next compound.
Form field, Plant response rating (scale of 0 to 100 where 0 is no effect and 100 is complete control) with oilseed rape, item FC(F)(F)COc1nc(-c2ccc(Cl)cc2)nn1Cc1ccnc(C(F)(F)F)c1 : 90

====

Parameter: Plant response rating (0 to 100), Deadnettle. Scope: all listed entries.
Tested on: deadnettle
assayExplanation: Test D preemergence
Type: in vivo, Lamium amplexicaule
experimentalParameters: 16 g ai/ha, 0 is no effect, 100 is complete control
Please reply with the number alone, leaving off any unit.

Consider the reported Plant response rating (0 to 100), Deadnettle for these compounds:
>>> measuredresult("FC(F)(F)COc1nc(-c2ccc(Cl)cc2)nn1Cc1ccnc(C(F)(F)F)c1")
80
>>> measuredresult("CCOc1nc(-c2ccccc2)nn1Cc1ccnc(C(F)(F)F)c1")
80
>>> measuredresult("COc1nc(-c2ccc(Cl)cc2)nn1Cc1ccnc(C(F)(F)F)c1")
20

Now turn to the next compound.
Form field, Plant response rating (0 to 100), Deadnettle with deadnettle, item CCOc1nc(-c2ccc(C(F)(F)F)cc2)nn1Cc1ccnc(C(F)(F)F)c1 : 80
